SYSTEM TESTED: STK33 (human) (UniProt Q9BYT3)
Sequence (Q9BYT3 whole entry, looked up): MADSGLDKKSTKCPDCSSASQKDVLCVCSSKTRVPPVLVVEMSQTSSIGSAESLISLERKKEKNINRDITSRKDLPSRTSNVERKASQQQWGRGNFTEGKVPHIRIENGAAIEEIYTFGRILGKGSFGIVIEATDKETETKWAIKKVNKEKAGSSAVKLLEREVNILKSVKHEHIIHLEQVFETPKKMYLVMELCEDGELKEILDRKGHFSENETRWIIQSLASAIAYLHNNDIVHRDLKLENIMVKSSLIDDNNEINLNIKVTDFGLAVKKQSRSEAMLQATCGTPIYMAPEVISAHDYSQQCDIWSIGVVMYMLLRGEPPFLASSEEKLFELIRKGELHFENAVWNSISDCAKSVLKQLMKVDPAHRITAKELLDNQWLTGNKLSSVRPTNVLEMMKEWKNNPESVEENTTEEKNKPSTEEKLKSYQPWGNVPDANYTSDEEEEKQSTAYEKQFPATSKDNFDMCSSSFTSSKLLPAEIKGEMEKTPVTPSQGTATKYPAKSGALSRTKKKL
PROCEDURE SUMMARY: KINOMEscan competition binding
EXPERIMENTAL CONDITIONS: compound 1.0 µM
kinase still bound, per cent of control by entry:

- SUBSTANCE SMILES: "Cc1cc(NC(=O)c2cccc(NC(=O)/C=C/CN(C)C)c2)ccc1Nc1nccc(-c2cccnc2)n1"
  kinase still bound, per cent of control, %: 100
- SUBSTANCE SMILES: "CN(C)C/C=C/C(=O)Nc1cccc(C(=O)Nc2ccc(Nc3nccc(-c4c(-c5ccccc5)nn5ccccc45)n3)cc2)c1"
  kinase still bound, per cent of control, %: 91
- SUBSTANCE SMILES: "CN(C)C/C=C/C(=O)Nc1cccc(C(=O)Nc2ccc(Nc3nccc(/C(C#N)=C4\\Nc5ccccc5S4)n3)cc2)c1"
  kinase still bound, per cent of control, %: 100
- SUBSTANCE SMILES: "CN(C)C/C=C/C(=O)Nc1cccc(C(=O)Nc2ccc(Nc3nccc(-c4cccnc4)n3)cc2)c1"
  kinase still bound, per cent of control, %: 93

----------
kinase still bound, per cent of control by entry:
SYSTEM TESTED: DAPK3 (human)
PROCEDURE SUMMARY: KINOMEscan competition binding
EXPERIMENTAL CONDITIONS: compound 1.0 µM
PROPERTY MEASURED: kinase still bound, per cent of control (%)

- SUBSTANCE SMILES: "CN(C)C/C=C/C(=O)Nc1cccc(C(=O)Nc2ccc(Nc3nccc(-c4c(-c5ccccc5)nn5ccccc45)n3)cc2)c1"
  TEST VALUE: 93
- SUBSTANCE SMILES: "CN(C)C/C=C/C(=O)Nc1cccc(C(=O)Nc2ccc(Nc3nccc(-c4cccnc4)n3)cc2)c1"
  TEST VALUE: 65
- SUBSTANCE SMILES: "Cc1cc(NC(=O)c2cccc(NC(=O)/C=C/CN(C)C)c2)ccc1Nc1nccc(-c2cccnc2)n1"
  TEST VALUE: 100
- SUBSTANCE SMILES: "CN(C)C/C=C/C(=O)Nc1cccc(C(=O)Nc2ccc(Nc3nccc(/C(C#N)=C4\\Nc5ccccc5S4)n3)cc2)c1"
  TEST VALUE: 100

----------
SYSTEM TESTED: CDK5 (human)
PROCEDURE SUMMARY: KINOMEscan competition binding
EXPERIMENTAL CONDITIONS: compound 1.0 µM

- SUBSTANCE SMILES: "CN(C)C/C=C/C(=O)Nc1cccc(C(=O)Nc2ccc(Nc3nccc(-c4c(-c5ccccc5)nn5ccccc45)n3)cc2)c1"
  kinase still bound, per cent of control, %: 100
- SUBSTANCE SMILES: "CN(C)C/C=C/C(=O)Nc1cccc(C(=O)Nc2ccc(Nc3nccc(/C(C#N)=C4\\Nc5ccccc5S4)n3)cc2)c1"
  kinase still bound, per cent of control, %: 100
- SUBSTANCE SMILES: "CN(C)C/C=C/C(=O)Nc1cccc(C(=O)Nc2ccc(Nc3nccc(-c4cccnc4)n3)cc2)c1"
  kinase still bound, per cent of control, %: 89
- SUBSTANCE SMILES: "Cc1cc(NC(=O)c2cccc(NC(=O)/C=C/CN(C)C)c2)ccc1Nc1nccc(-c2cccnc2)n1"
  kinase still bound, per cent of control, %: 100

----------
SYSTEM TESTED: UniProt Q6DT37
PROPERTY MEASURED: Kd (nM)

- SUBSTANCE SMILES: "CN(C)C/C=C/C(=O)Nc1cccc(C(=O)Nc2ccc(Nc3nccc(-c4c(-c5ccccc5)nn5ccccc45)n3)cc2)c1"
  SYSTEM TESTED: "UniProt Q6DT37"
  UNIT OF MEASUREMENT: "nM"
  TEST VALUE: 18

----------
kinase still bound, per cent of control by entry:
SYSTEM TESTED: NEK5 (human) (UniProt Q6P3R8)
Sequence (Q6P3R8 whole entry, looked up): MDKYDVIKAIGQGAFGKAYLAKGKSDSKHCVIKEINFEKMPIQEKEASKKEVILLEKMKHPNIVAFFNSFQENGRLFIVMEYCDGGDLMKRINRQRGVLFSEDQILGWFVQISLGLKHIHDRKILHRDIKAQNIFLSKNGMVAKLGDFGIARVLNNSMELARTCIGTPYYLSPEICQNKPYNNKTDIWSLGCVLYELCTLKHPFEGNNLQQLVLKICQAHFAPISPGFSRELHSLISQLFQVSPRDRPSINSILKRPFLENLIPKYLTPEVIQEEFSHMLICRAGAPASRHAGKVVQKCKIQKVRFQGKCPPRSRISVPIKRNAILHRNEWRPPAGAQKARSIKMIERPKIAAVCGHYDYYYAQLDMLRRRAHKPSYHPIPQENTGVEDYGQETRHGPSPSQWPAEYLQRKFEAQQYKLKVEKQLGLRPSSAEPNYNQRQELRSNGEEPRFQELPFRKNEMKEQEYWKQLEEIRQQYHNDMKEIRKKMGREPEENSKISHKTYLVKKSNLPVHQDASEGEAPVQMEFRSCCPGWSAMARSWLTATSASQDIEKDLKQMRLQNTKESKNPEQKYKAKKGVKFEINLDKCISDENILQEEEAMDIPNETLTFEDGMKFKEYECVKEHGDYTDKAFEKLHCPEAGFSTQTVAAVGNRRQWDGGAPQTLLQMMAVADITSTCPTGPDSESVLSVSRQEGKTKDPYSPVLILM
PROCEDURE SUMMARY: KINOMEscan competition binding
EXPERIMENTAL CONDITIONS: compound 1.0 µM
PROPERTY MEASURED: kinase still bound, per cent of control (%)

- SUBSTANCE SMILES: "Cc1cc(NC(=O)c2cccc(NC(=O)/C=C/CN(C)C)c2)ccc1Nc1nccc(-c2cccnc2)n1"
  TEST VALUE: 92
- SUBSTANCE SMILES: "CN(C)C/C=C/C(=O)Nc1cccc(C(=O)Nc2ccc(Nc3nccc(/C(C#N)=C4\\Nc5ccccc5S4)n3)cc2)c1"
  TEST VALUE: 100
- SUBSTANCE SMILES: "CN(C)C/C=C/C(=O)Nc1cccc(C(=O)Nc2ccc(Nc3nccc(-c4c(-c5ccccc5)nn5ccccc45)n3)cc2)c1"
  TEST VALUE: 98
- SUBSTANCE SMILES: "CN(C)C/C=C/C(=O)Nc1cccc(C(=O)Nc2ccc(Nc3nccc(-c4cccnc4)n3)cc2)c1"
  TEST VALUE: 7.8

----------
kinase still bound, per cent of control by entry:
SYSTEM TESTED: RPS6KA4 KD2 (human) (UniProt O75676)
Sequence (O75676 whole entry, looked up): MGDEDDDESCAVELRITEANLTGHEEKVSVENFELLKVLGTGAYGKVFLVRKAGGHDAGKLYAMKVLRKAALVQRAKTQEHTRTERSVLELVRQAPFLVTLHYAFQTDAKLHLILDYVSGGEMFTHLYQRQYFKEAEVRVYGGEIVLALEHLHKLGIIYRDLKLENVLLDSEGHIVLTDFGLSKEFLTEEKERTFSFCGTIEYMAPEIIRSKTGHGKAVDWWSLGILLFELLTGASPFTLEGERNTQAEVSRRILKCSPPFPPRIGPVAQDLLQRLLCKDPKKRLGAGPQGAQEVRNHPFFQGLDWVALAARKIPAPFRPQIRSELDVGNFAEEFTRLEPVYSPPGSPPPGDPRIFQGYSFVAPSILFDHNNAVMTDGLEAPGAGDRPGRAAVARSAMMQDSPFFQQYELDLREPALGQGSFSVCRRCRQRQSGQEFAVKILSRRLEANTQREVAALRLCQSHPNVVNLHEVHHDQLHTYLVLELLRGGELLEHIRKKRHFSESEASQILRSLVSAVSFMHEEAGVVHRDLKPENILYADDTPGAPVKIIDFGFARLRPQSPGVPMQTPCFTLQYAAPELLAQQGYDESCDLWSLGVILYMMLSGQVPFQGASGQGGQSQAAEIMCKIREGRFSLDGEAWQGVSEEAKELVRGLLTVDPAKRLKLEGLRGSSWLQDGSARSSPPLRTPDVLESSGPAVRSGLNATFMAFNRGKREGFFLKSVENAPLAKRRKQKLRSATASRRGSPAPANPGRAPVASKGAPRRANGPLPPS
PROCEDURE SUMMARY: KINOMEscan competition binding
EXPERIMENTAL CONDITIONS: compound 1.0 µM

- SUBSTANCE SMILES: "Cc1cc(NC(=O)c2cccc(NC(=O)/C=C/CN(C)C)c2)ccc1Nc1nccc(-c2cccnc2)n1"
  SYSTEM TESTED: "RPS6KA4 KD2 (human) (UniProt O75676)"
  UNIT OF MEASUREMENT: "%"
  kinase still bound, per cent of control: 74
- SUBSTANCE SMILES: "CN(C)C/C=C/C(=O)Nc1cccc(C(=O)Nc2ccc(Nc3nccc(-c4c(-c5ccccc5)nn5ccccc45)n3)cc2)c1"
  SYSTEM TESTED: "RPS6KA4 KD2 (human) (UniProt O75676)"
  UNIT OF MEASUREMENT: "%"
  kinase still bound, per cent of control: 91
- SUBSTANCE SMILES: "CN(C)C/C=C/C(=O)Nc1cccc(C(=O)Nc2ccc(Nc3nccc(-c4cccnc4)n3)cc2)c1"
  SYSTEM TESTED: "RPS6KA4 KD2 (human) (UniProt O75676)"
  UNIT OF MEASUREMENT: "%"
  kinase still bound, per cent of control: 65
- SUBSTANCE SMILES: "CN(C)C/C=C/C(=O)Nc1cccc(C(=O)Nc2ccc(Nc3nccc(/C(C#N)=C4\\Nc5ccccc5S4)n3)cc2)c1"
  SYSTEM TESTED: "RPS6KA4 KD2 (human) (UniProt O75676)"
  UNIT OF MEASUREMENT: "%"
  kinase still bound, per cent of control: 100

----------
SYSTEM TESTED: EIF2AK2 (human) (UniProt P19525)
Sequence (P19525 whole entry, looked up): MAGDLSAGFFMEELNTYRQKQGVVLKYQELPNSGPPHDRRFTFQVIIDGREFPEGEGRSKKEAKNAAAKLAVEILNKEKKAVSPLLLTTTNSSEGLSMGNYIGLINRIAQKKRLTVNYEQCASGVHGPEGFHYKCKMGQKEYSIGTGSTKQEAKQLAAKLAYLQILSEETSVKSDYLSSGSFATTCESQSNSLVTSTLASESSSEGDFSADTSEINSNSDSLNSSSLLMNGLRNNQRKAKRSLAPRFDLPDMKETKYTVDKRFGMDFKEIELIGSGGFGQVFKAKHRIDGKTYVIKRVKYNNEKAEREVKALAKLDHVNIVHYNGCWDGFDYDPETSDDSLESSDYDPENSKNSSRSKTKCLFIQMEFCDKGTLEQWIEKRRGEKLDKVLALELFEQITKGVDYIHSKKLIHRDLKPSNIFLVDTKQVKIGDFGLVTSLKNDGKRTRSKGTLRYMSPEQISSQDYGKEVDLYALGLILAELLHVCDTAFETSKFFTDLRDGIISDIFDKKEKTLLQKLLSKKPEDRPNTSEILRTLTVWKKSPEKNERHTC
PROCEDURE SUMMARY: KINOMEscan competition binding
EXPERIMENTAL CONDITIONS: compound 1.0 µM
PROPERTY MEASURED: kinase still bound, per cent of control (%)

- SUBSTANCE SMILES: "CN(C)C/C=C/C(=O)Nc1cccc(C(=O)Nc2ccc(Nc3nccc(-c4cccnc4)n3)cc2)c1"
  PROPERTY MEASURED: "kinase still bound, per cent of control"
  TEST VALUE: 53
- SUBSTANCE SMILES: "Cc1cc(NC(=O)c2cccc(NC(=O)/C=C/CN(C)C)c2)ccc1Nc1nccc(-c2cccnc2)n1"
  PROPERTY MEASURED: "kinase still bound, per cent of control"
  TEST VALUE: 82
- SUBSTANCE SMILES: "CN(C)C/C=C/C(=O)Nc1cccc(C(=O)Nc2ccc(Nc3nccc(-c4c(-c5ccccc5)nn5ccccc45)n3)cc2)c1"
  PROPERTY MEASURED: "kinase still bound, per cent of control"
  TEST VALUE: 92
- SUBSTANCE SMILES: "CN(C)C/C=C/C(=O)Nc1cccc(C(=O)Nc2ccc(Nc3nccc(/C(C#N)=C4\\Nc5ccccc5S4)n3)cc2)c1"
  PROPERTY MEASURED: "kinase still bound, per cent of control"
  TEST VALUE: 100

----------
Test system: PIK3CA (human), P42336 [H1047Y]
Sequence (P42336 whole entry H1047Y, looked up): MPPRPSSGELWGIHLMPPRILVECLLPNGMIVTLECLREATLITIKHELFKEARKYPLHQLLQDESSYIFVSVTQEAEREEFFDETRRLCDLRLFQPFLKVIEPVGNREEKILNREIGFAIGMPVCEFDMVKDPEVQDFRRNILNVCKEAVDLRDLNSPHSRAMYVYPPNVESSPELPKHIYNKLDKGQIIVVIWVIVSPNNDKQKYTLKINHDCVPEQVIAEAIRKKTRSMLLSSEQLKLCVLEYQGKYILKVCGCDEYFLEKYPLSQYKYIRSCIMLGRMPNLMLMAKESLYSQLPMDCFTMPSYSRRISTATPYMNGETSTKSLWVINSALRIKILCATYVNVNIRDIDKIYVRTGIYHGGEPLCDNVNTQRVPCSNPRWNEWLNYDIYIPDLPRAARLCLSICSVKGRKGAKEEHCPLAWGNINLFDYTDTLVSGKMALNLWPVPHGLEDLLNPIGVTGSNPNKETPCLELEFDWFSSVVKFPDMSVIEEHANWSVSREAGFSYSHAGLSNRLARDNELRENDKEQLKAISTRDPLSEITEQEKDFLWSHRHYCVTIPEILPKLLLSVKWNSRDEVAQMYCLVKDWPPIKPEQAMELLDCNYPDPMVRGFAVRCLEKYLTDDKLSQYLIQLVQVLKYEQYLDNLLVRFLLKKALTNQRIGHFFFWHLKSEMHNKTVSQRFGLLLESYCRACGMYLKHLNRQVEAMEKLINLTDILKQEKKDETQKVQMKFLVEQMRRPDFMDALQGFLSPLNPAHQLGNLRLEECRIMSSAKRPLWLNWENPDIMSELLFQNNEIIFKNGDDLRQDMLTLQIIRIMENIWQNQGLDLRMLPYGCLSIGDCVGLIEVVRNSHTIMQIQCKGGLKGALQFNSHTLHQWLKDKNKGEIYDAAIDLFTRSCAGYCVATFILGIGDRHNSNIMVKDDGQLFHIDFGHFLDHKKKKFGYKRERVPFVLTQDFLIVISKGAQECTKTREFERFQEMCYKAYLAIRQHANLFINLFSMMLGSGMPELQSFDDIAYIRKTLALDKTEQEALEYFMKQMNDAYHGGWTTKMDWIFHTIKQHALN
PROCEDURE SUMMARY: KINOMEscan competition binding
EXPERIMENTAL CONDITIONS: compound 1.0 µM

- SUBSTANCE SMILES: "Cc1cc(NC(=O)c2cccc(NC(=O)/C=C/CN(C)C)c2)ccc1Nc1nccc(-c2cccnc2)n1"
  UNIT OF MEASUREMENT: "%"
  kinase still bound, per cent of control: 96
- SUBSTANCE SMILES: "CN(C)C/C=C/C(=O)Nc1cccc(C(=O)Nc2ccc(Nc3nccc(-c4cccnc4)n3)cc2)c1"
  UNIT OF MEASUREMENT: "%"
  kinase still bound, per cent of control: 100
- SUBSTANCE SMILES: "CN(C)C/C=C/C(=O)Nc1cccc(C(=O)Nc2ccc(Nc3nccc(/C(C#N)=C4\\Nc5ccccc5S4)n3)cc2)c1"
  UNIT OF MEASUREMENT: "%"
  kinase still bound, per cent of control: 100
- SUBSTANCE SMILES: "CN(C)C/C=C/C(=O)Nc1cccc(C(=O)Nc2ccc(Nc3nccc(-c4c(-c5ccccc5)nn5ccccc45)n3)cc2)c1"
  UNIT OF MEASUREMENT: "%"
  kinase still bound, per cent of control: 93
